Test system: PPARg:RXRa DBDmut IVT, anti-RXR (DBD mutation: RXRa K156A/R161A, NR concentration 270 nM, RXRa partner concentration 90 nM)
test-description: PBM binding z-score (relative to random genomic background probes); higher = stronger binding; sequences stand for … in GC…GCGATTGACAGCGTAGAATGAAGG
attribute-measured: PBM binding z-score
Answer with the value's number alone.

Inquiry: Looking for the measured PBM binding z-score of CAAACTAGGTCCAGAGGTCAAAGTCCGCTTCCCG , can you help?
Reply text: 2.96

Inquiry: Looking for the measured PBM binding z-score of TCGAGTAGGTTAATCGGGGCATTCAGCCAACATA , can you help?
Reply text: 3.25

Inquiry: Looking for the measured PBM binding z-score of CGAACGAGGGCATGAGTTGTTAGCAAATGCCGAT , can you help?
Reply text: 3.23

Inquiry: Looking for the measured PBM binding z-score of ATCTCTAGGAAAAGATAGTTCAGTGAATGCAAAT , can you help?
Reply text: -0.409

Inquiry: Looking for the measured PBM binding z-score of CAAACTAGGTCAAGAGGGCAAAGTCCGCTTCCCG , can you help?
Reply text: 8.35

The measurements presented in this section are drawn from the supplement of paper PMC6555819.
